The reported measurements were obtained from patent US20240101576A1.

- target_desc: EGFR exon 20 ASV Ins V769_D770 (Ba/F3 cells) (Homo sapiens, UniProt P00533, INS769ASV)
- Construct: expressed in transfected cells; host or cells: Ba/F3 (murine pro-B cells), retroviral transduction, puromycin selection, IL3-independent pool
- Sequence (P00533 with tags, fused parts or gaps INS769ASV): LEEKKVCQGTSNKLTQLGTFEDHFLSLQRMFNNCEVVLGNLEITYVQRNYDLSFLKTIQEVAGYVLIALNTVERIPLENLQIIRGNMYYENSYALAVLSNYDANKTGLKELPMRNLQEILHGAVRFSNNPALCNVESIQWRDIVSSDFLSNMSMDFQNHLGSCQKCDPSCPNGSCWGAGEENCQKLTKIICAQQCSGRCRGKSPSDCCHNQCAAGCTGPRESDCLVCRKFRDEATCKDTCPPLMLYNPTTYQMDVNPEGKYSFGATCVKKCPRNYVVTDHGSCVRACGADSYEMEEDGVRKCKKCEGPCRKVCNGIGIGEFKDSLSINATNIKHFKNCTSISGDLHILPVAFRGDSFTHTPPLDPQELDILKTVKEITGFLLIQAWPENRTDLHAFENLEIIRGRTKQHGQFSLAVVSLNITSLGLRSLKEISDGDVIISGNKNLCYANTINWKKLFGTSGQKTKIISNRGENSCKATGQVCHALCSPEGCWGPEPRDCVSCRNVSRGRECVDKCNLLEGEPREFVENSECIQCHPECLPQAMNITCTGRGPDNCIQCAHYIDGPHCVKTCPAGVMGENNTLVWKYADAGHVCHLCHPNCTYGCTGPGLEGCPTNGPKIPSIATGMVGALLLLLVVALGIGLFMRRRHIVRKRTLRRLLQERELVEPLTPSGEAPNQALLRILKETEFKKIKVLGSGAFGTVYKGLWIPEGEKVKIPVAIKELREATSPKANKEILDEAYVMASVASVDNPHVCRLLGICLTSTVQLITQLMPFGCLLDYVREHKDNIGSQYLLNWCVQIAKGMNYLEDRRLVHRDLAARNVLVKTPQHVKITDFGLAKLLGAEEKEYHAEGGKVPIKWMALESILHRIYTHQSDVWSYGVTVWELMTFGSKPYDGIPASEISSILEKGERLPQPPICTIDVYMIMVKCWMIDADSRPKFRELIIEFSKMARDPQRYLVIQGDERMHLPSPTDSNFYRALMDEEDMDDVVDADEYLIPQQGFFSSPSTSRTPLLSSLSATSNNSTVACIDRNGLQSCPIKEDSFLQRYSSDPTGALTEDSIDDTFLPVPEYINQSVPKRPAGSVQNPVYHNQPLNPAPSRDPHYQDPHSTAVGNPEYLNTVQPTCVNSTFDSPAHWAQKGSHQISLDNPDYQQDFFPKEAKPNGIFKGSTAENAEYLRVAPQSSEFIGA
- method_description: Inhibitor activity on EGFR-dependent cell growth (CellTiter-Glo, 72 h), Ba/F3 EGFR exon 20 ASV Ins
- Type: cell-based
- measurement_setup: read-out: BaF3 ASV IC50

compound | IC50
COCC[C@@H]1CNC(=O)c2c1[nH]c(-c1ccncc1F)c2Nc1cccc(F)c1OC [421b] | < 100 nM
COc1ncc2nccc(-c3[nH]c4c(c3Nc3cccc(Cl)c3Cl)C(=O)NCC4)c2n1 [Compound 803] | < 100 nM
COc1c(Cl)cccc1Nc1c(-c2ccnc3ccc(OC4CC4)nc23)[nH]c2c1C(=O)NC[C@H]2C [Compound 769] | < 100 nM
CCO[C@H](C)c1ccc2nccc(-c3[nH]c4c(c3Nc3cccc(Cl)c3OC)C(=O)NCC4)c2n1 [compound 753, trifluoroacetic acid] | < 100 nM
COc1ccc2ncc(F)c(-c3[nH]c4c(c3Nc3cccc(Cl)c3OC)C(=O)NCC4)c2n1 [compound 829] | > 1000 nM
COc1c(F)cccc1Nc1c(-c2ccnc(Nc3cnn(C)n3)n2)[nH]c2c1C(=O)NCC2 [compound 593] | < 100 nM
COc1c(Cl)cccc1Nc1c(-c2ccnc3ccc(OCCCN4CCOCC4)nc23)[nH]c2c1C(=O)NCC2 [compound 503] | < 100 nM

###

- target_desc: EGFR exon 20 SVD Ins D770_N771 (Ba/F3 cells) (Homo sapiens, UniProt P00533, INS770SVD)
- Construct: expressed in transfected cells; host or cells: Ba/F3 (murine pro-B cells), retroviral transduction, puromycin selection, IL3-independent pool
- Sequence (P00533 with tags, fused parts or gaps INS770SVD): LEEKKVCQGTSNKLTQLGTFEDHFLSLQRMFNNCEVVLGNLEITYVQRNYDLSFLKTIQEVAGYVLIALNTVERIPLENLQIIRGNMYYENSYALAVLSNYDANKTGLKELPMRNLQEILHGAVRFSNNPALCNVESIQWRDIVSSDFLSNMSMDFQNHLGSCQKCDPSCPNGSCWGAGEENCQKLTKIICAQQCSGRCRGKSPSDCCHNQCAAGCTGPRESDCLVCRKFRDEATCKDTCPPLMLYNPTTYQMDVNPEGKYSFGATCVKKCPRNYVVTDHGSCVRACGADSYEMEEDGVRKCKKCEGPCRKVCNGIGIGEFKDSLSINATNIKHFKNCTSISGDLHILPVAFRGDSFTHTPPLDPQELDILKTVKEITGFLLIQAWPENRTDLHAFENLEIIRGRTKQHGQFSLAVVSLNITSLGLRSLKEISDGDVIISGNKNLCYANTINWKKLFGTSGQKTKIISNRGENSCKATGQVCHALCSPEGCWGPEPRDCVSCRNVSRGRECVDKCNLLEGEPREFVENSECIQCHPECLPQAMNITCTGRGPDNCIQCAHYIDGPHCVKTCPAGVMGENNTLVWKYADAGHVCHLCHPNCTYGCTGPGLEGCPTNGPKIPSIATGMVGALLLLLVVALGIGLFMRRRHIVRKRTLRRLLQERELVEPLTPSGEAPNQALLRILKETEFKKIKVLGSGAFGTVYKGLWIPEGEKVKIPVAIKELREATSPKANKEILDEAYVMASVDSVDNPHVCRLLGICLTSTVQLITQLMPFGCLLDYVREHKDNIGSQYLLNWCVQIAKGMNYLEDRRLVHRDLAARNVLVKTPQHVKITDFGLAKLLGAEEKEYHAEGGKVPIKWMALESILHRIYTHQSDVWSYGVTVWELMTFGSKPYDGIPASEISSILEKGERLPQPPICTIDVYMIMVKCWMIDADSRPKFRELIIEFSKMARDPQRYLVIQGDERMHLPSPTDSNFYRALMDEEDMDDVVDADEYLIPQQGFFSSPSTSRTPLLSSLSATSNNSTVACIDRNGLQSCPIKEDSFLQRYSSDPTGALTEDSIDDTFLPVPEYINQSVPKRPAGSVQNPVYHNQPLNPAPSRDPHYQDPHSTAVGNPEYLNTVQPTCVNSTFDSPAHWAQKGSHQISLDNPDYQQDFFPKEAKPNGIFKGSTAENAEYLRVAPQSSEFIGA
- method_description: Inhibitor activity on EGFR-dependent cell growth (CellTiter-Glo, 72 h), Ba/F3 EGFR exon 20 SVD Ins
- Type: cell-based
- measurement_setup: read-out: BaF3 SVD IC50

molecule | IC50
CNC(=O)N1CC[C@]2(CNC(=O)c3c2[nH]c(-c2ccncc2F)c3Nc2cccc(Cl)c2OC)C1 [Compound 500] | > 1000 nM
COc1c(F)cccc1Nc1c(-c2ccnc3[nH]ccc23)[nH]c2c1C(=O)NCC2 [compound 252] | 100 to 1000 nM
CC#CC(=O)N1CCC2(CC1)CNC(=O)c1c2[nH]c(-c2ccncc2F)c1Nc1cccc(F)c1OC [Compound 609] | 100 to 1000 nM
COc1c(Cl)cccc1Nc1c(-c2ncnc3[nH]ccc23)[nH]c2c1C(=O)NCC2 [compound 289] | > 1000 nM
COc1c(Cl)cccc1Nc1c(-c2ccnc3ccc(OC4CCOCC4)nc23)[nH]c2c1C(=O)NCC2 [compound 740] | < 100 nM
COc1c(Cl)cccc1Nc1c(-c2ccncn2)[nH]c2c(C[C@@H]3COCCO3)c[nH]c(=O)c12 [compound 656] | < 100 nM
CCOc1c(F)cccc1Nc1c(-c2ccnc(N)n2)[nH]c2c1C(=O)NCC2 [Compound 699, trifluoroacetic acid] | > 1000 nM
CC[C@H]1CNC(=O)c2c1[nH]c(-c1ccnc(N)n1)c2Nc1cccc(Cl)c1OC [189b] | < 100 nM
COc1c(F)cccc1Nc1c(-c2ccnc(C)n2)[nH]c2c1C(=O)NCC2C[C@H]1COCCO1 (single isomer, unassigned) [Compound 603] | < 100 nM
COc1c(Cl)cccc1Nc1c(-c2ccnc3ccc(OC4CC4)nc23)[nH]c2c1C(=O)NC[C@H]2C [Compound 769] | < 100 nM
C=CC(=O)N1CCC2(CC1)CNC(=O)c1c2[nH]c(-c2ccnc(C)n2)c1Nc1cccc(F)c1OC [compound 644] | < 100 nM
COc1c(F)cccc1Nc1c(-c2ccncn2)[nH]c2c1C(=O)NCC2 [compound 244] | > 1000 nM
COc1c(Cl)cccc1Nc1c(-c2ccnc3cccnc23)[nH]c2c1C(=O)NCC2 [Compound 683] | < 100 nM
C=CC(=O)N1CCC2(CC1)CNC(=O)c1c2[nH]c(-c2ccncc2F)c1Nc1cccc(F)c1SC [Compound 560] | < 100 nM
COCC[C@@H]1CNC(=O)c2c1[nH]c(-c1ccncc1F)c2Nc1cccc(F)c1C [compound 823] | < 100 nM
